Cited source for all entries: the DeepSol protein solubility set

assay: soluble on expression in E. coli; label from the status in PepcDB or PDB records

record.sequence	soluble on expression in E. coli
MSLKENKYDDKHFFEQYSQMPRSKEGLKAAGEWHELKKMLPDFNQKTVLDLGCGFGWHCIYAAEHGAKKVLGIDLSERMLTEAKRKTTSPVVCYEQKAIEDIAIEPDAYNVVLSSLALHYIASFDDICKKVYINLKSSGSFIFSVEHPVFTADGRQDWYTDETGNKLHWPVDRYFNESMRTSHFLGEDVQKYHRTVTTYIQTLLKNGFQINSVIEPEPAPELKDLPEMQDEYRRPMMLLISATKQEGHHHHHH	soluble
GPGSMIHPMAVDRLLPSQEAAELIELTREIADKVLDPIVDRHEKDETYPEGVFEQLGAAGLLSLPQPEEWGGGGQPYEVYLQVLEEIAARWASVAVAVSVHSLSSHPLLVFGTEEQKKRWLPGMLSGEQIGAYSLSEPQAGSDAAALRCAATPTDGGYVINGSKSWITHGGKADFYTLFARTGEGSRGVSCFLVPADQPGLSFGKPEEKMGLHAVPTTSAFYDNARIDADRRIGEEGQGLQIAFSALDSGRLGIAAVATGLAQAALDEAVAYANERTAFGRKIIDHQGLGFLLADMAAAVATARATYLDAARRRDQGRPYSQQASIAKLTATDAAMKVTTDAVQVFGGVGYTRDYRVERYMREAKIMQIFEGTNQIQRLVIARGLTR	soluble
MGHHHHHHSHMLFIDNQNINDPRINLAIEEYCVKHLDPEQQYLLFYVNQPSIIIGKNQNTIEEINTKYVEENGIIVVRRLSGGGAVYHDLGNLNFSFITKDDGDSFHNFKKFTEPVIQALHQLGVEAELSGRNDIVVDGRKISGNAQFATKGRIFSHGTLMFDSAIDHVVSALKVKKDKIESKGIKSIRSRVANISEFLDDKMTTEEFRSHLLRHIFNTNDVGNVPEYKLTEKDWETIHQISKERYQNWDWNYGRSPKFNLNHSKRYPVGSIDLHLEVKKGKIEDCKIFGDFFGVGDVSEIENLLVGKQYERSVIADVLEGVNLKHYFGNITKEDFLDLIY	not soluble
MAEKKKEEKESKETEVFILKLENTTVTFTNPKLGDEVTIASLNLTNPTKDRYAFKIKCTSNQLFKIKSPVGYINPEESLTIPVYHYPATVIPENNKHYFVVYYIKAANTVKEKIPVRDLWKAAASSEGTRRVFIDFKKPELPPTEAEDGKMGDDKKKGKKDDKKEEKDGKKDEKKDGSDEEGKKDEGKGEKKEEKKDDKKDDKKDDKKEEKKEDGAKK	soluble
AKPIDVSRLDLRIGCIITARKHPDADSLYVEEVDVGEIAPRTVVSGLVNHVPLEQMQNRMVILLCNLKPAKMRGVLSQAMVMCASSPEKIEILAPPNGSVPGDRITFDAFPGEPDKELNPKKKIWEQIQPDLHTNDECVATYKGVPFEVKGKGVCRAQTMSNSGIKLEHHHHHH	soluble
MGSDKIHHHHHHMMFKWPWKADDESGNAEMPWEQALAIPVLAHLSSTEQHKLTQMAARFLQQKRLVALQGLELTPLHQARIAMLFCLPVLELGIEWLDGFHEVLIYPAPFIVDDEWEDDIGLVHNQRVVQSGQSWQQGPVVLNWLDIQDSFDASGFNLVVHEVAHKLDTRNGDRASGVPLIPLREVAGWEHDLHAAMNNIQDEIDLVGESAASIDAYAATDPAECFAVLSEYFFSAPELFAPRFPALWQRFCHFYRQDPLARRRENGLQDEGDRRIVH	not soluble
